Each entry below lists one item and its recorded hERG current change (%, negative = inhibition) at 10uM value.
- TARGET_OF_ASSAY: human ether-à-go-go-related gene (hERG) potassium channel (human, UniProt Q12809);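 note: peak tail current of the secondary pulse compared with the same well before compound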
- Sequence (Q12809 whole entry, looked up): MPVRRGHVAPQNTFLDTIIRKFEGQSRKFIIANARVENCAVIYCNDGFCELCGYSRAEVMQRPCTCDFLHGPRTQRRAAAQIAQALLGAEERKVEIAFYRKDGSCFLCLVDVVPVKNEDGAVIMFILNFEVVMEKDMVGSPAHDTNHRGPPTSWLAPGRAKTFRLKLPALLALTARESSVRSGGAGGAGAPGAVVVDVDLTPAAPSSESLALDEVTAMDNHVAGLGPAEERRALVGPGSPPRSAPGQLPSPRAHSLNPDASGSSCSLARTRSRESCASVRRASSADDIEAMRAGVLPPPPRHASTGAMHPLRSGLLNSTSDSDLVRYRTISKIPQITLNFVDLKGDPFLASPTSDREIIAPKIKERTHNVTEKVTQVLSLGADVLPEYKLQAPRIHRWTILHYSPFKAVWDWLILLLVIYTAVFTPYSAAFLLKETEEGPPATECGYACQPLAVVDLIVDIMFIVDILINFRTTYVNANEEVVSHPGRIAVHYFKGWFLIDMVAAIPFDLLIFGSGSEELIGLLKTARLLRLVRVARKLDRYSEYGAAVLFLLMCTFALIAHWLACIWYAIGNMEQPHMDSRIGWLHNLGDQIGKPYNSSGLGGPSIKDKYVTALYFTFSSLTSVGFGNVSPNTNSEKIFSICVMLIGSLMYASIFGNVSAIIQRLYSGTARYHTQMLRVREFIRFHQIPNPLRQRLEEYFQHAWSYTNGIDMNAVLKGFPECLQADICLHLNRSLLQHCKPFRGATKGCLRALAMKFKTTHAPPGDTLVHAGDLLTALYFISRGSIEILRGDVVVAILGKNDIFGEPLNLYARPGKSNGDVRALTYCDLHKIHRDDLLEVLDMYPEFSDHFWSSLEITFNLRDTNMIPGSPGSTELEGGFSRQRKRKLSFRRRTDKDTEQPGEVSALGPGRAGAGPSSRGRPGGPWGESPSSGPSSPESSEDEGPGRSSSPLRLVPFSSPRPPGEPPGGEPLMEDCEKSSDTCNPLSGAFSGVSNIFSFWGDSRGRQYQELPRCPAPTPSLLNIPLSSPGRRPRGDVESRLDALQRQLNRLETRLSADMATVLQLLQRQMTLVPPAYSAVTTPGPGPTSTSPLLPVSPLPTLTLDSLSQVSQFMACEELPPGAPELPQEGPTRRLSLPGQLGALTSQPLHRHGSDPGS
- ASSAY_PROTOCOL: primary screen, population patch clamp on CHO cells stably expressing hERG; higher = less effect of the substance
- Method: Briefly, Chinese hamster ovary (CHO) cells stably expressing the hERG channel were dislodged from tissue culture flasks and dispensed into PPC plates. […] During the recording, background leak currents were estimated by a 100 ms step to -80 mV from an initial holding potential of -70 mV and subtracted from the subsequent current measurement. The campaign was conducted in two phases using slight differences in recording protocol. […]
Among all 310,000 compounds or so, about 14,000 (4.5%) showed an effect of 50% or more. Effects have a minus sign here. The entries come from a sample that favours strong results as a whole.
Value expressed in %; do not type the unit.

CN(C)S(=O)(=O)c1cccc(COC(=O)CCNC(=O)c2ccc([N+](=O)[O-])cc2)c1
-55.2

Quick one: hERG current change (%, negative = inhibition) at 10uM for Cc1ccc(NC(=O)CN2CCCC2)cc1.Cl ?
19.1

Can you handle O=C(CCNC(=O)c1ccc(Cl)cc1)Nc1cccc(S(=O)(=O)N2CCCCCC2)c1 next?
-57.3

Next up: CN(C)S(=O)(=O)c1ccc(C(=O)OCc2ccc([N+](=O)[O-])cc2)cc1
17.6

Same lookup for O=C(CCNC(=O)c1ccc(Br)cc1)Nc1cccc(S(=O)(=O)N2CCCCCC2)c1 , please.
-34.1

Repeat for the following molecule: O=C(CCNC(=O)c1ccc(Cl)cc1)Nc1cccc(S(=O)(=O)N2CCCCC2)c1
-46

And O=C(CCNC(=O)c1ccc([N+](=O)[O-])cc1)Nc1cccc(S(=O)(=O)N2CCCCC2)c1 ?
-55.2

Same thing, different molecule: Fc1cccc(Cl)c1Cn1ncc2ccccc21
-7.36

Similarly, O=C(CCNC(=O)c1ccc([N+](=O)[O-])cc1)Nc1cccc(S(=O)(=O)N2CCCCCC2)c1 ?
-75.1

###

- TARGET_OF_ASSAY: human ether-à-go-go-related gene (hERG) potassium channel (human);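 note: peak tail current of the secondary pulse compared with the same well before compound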
- ASSAY_PROTOCOL: primary screen, population patch clamp on CHO cells stably expressing hERG; higher = less effect of the substance
Out of some 310,000 compounds screened, about 14,000 (4.5%) showed an effect of 50% or more. Effects have a minus sign here. Shown is part of a subset that was picked to be rich in strong results.
METRIC_NAME: hERG current change (%, negative = inhibition) at 10uM (%)
Just the number in %, nothing appended.

A selection of reference data follows.
CCCCc1cc(=O)oc2cc(C)cc(OC(C)C(=O)NCc3ccncc3)c12 (stereo not drawn)
-36
COc1cc2cc(CN(CCc3cccc(C)c3)C(=S)NCCCN3CCOCC3)c(=O)[nH]c2cc1OC
-66.9
Cl.NC(=NCc1ccccc1)c1cccc([N+](=O)[O-])c1
-20

Value lookup for hERG current change (%, negative = inhibition) at 10uM; key = N/C(=N\OC(=O)CCCc1ccccc1)c1cccc([N+](=O)[O-])c1
-3.9

How about NS(=O)(=O)c1ccc2nc(NC(=O)CS(=O)(=O)c3ccccc3)sc2c1 ?
26.8

And C=CCN(CC(O)c1cccc([N+](=O)[O-])c1)C(C)CCc1ccccc1.Cl (stereo not drawn) ?
-36.4

Next compound up: CC(CCc1ccccc1)N(C)CC(O)c1cccc([N+](=O)[O-])c1.Cl (stereo not drawn)
-68.6

What about CC(CCc1ccccc1)NC(=O)c1cccc([N+](=O)[O-])c1 (stereo not drawn) ?
-8.01

Likewise for CC(CCc1ccccc1)NCC(O)c1cccc([N+](=O)[O-])c1.Cl (stereo not drawn) ?
-56.2
